Collected pIC50 values appear next to each entry.
system_name: IGFR-1 (Homo sapiens)
Construct: Kinases are expressed as either kinase domains or full length constructs; made in house
experiment: Kinase inhibition assay, IGFR-1 (Table 2)
Assay type: biochemical
conditions_used: Table 2, kinase inhibition class
pIC50: −log10 of the molar value.

Consider the following illustrative entries.
>>> df
                                   compound  result
0  COc1cc(Nc2ncnc(Nc3cc(OC)c(OC)c(OC)c3)n2)ccc1OCCN1CCOCC1 [Compound 601]  < 5.06
1  COc1cc(Nc2ncnc(-c3cccnc3NCc3ccc(F)cc3)n2)cc(OC)c1OCCN1CCOCC1 [Compound 564]  < 5.10
2  Cc1ccc2c(c1)CCCN2c1ncnc(NCCc2cccnc2)n1 [Compound 775]  < 4.89
3  CN(c1cccc(Cl)c1)c1ncnc(Nc2ccc(CC(=O)O)cc2)n1 [Compound 705]  < 4.91
4  COc1ccc(CNc2ncccc2-c2ncnc(Nc3cc(OC)c(OC)c(OC)c3)n2)nc1 [Compound 1085]  < 5.02

Entry c1ccc(Cn2ncc3cc(Nc4ncnc(Nc5cc(-c6ccccc6)[nH]n5)n4)ccc32)cc1 [Compound 737] , pIC50 reported as 5.28 to 6.06

Kindly note the recorded pIC50 for CCN(CC)CCNc1ncnc(N(C)c2cccc(Cl)c2)n1 [Compound 745] , which is < 4.87

Kindly note the recorded pIC50 for COc1cc(Nc2ncnc(-n3c(NC(CCO)c4ccccc4)nc4ccccc43)n2)cc(OC)c1OC (centres unmarked) [Compound 591] , which is < 5.07

---

The following are reported IC50 results, target or system FGFR1 (Homo sapiens).

                                   compound           system_name            result
0  COc1cc(Nc2ncnc(-n3ccc4ccccc43)n2)cc(OC)c1OC [Compound 185]  FGFR1 (Homo sapiens)         > 11.9 µM
1  COc1cc(Nc2ncnc(Nc3ccc(OCc4ccccc4)cc3)n2)cc(OC)c1 [Compound 156]  FGFR1 (Homo sapiens)  0.931 to 5.59 µM
2  NC(=O)c1cccc(Nc2ncnc(Nc3cc(-c4ccco4)n[nH]3)n2)c1 [Compound 342]  FGFR1 (Homo sapiens)          < 1.1 µM
3  CCN(CC)CCOc1cc(Nc2ncnc(Nc3cc(OC)c(OC)c(OC)c3)n2)ccc1OC [Compound 600]  FGFR1 (Homo sapiens)         > 9.03 µM

Observed IC50 on FGFR1 (Homo sapiens), entry COc1cc(Nc2ncnc(-n3c(N)nc4ccccc43)n2)cc(OCCN2CCOCC2)c1OC [Compound 466] , equals < 0.812 µM

// returns IC50 for COCCOc1ccc(Nc2ncnc(Nc3ccc4[nH]ccc4c3)n2)cc1OCCOC [Compound 321] with FGFR1 (Homo sapiens); value = > 9.99 µM

Sample COc1cc(Nc2ncnc(-n3c(NC4c5ccccc5CC4O)nc4ccccc43)n2)cc(OC)c1OC (centres unmarked) [Compound 579] , system: FGFR1 (Homo sapiens). Its IC50 is 0.761 to 4.57 µM

Reported IC50 (FGFR1 (Homo sapiens)) for entry COc1cc(Nc2ncnc(N(C)c3cccc4ccccc34)n2)cc(OC)c1OC [Compound 607] is 0.958 to 5.75 µM

---

Reported IC50 values follow for various compounds
system_name: Kdr (Homo sapiens, UniProt P35968)
Construct: Kinases are expressed as either kinase domains or full length constructs; made in house
Sequence (P35968 20-1356, species assumed): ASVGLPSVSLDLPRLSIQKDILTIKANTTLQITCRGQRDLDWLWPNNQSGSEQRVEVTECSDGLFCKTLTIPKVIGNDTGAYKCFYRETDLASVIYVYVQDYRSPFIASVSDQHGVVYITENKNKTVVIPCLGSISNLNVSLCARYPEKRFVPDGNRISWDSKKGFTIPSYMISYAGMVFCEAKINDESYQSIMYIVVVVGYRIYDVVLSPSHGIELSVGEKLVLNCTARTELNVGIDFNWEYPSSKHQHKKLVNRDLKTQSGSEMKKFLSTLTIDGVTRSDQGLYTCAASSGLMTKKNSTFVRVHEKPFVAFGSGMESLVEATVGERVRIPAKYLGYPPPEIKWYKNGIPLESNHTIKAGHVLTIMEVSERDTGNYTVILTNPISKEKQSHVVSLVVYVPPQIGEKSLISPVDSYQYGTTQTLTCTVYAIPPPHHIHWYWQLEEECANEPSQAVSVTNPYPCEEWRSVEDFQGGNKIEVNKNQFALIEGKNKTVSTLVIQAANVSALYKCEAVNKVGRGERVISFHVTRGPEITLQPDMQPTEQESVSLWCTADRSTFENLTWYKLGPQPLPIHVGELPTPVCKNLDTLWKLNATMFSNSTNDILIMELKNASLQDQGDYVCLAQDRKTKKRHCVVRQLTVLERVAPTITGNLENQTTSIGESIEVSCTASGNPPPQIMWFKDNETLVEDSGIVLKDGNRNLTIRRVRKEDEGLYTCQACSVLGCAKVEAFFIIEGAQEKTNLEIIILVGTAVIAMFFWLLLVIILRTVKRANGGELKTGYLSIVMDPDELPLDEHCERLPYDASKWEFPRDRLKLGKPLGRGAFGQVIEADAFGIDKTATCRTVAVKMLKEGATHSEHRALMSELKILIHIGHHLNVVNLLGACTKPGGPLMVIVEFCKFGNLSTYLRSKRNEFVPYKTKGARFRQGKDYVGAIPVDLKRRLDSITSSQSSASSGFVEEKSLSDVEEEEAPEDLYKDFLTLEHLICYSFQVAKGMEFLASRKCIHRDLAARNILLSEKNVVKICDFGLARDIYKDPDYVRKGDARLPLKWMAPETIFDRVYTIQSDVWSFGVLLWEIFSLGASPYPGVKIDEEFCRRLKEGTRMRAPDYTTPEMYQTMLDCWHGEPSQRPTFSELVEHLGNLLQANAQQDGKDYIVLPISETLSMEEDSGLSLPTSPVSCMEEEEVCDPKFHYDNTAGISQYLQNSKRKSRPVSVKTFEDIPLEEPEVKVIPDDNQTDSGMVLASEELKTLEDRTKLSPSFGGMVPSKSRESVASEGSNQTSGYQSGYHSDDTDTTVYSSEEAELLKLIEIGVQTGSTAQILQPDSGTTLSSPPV
experiment: Kinase inhibition assay (33P transfer), Kdr
Assay type: biochemical
conditions_used: read-out: KDR-1

In [3]: df
Out[3]:
                                   compound                         system_name           result
0  COc1cc(Nc2ncnc(Nc3[nH]ncc3-c3cccc(Cl)c3)n2)cc(OC)c1OC  Kdr (Homo sapiens, UniProt P35968)        > 9.91 µM
1  COc1ccc([C@H](C)Nc2nc3ccccc3n2-c2ncnc(Nc3cc(OC)c(OC)c(OC)c3)n2)cc1  Kdr (Homo sapiens, UniProt P35968)       < 0.758 µM
2  COc1cc(Nc2ncnc(-c3cccnc3Cl)n2)cc(OC)c1OC  Kdr (Homo sapiens, UniProt P35968)    9.36 to 12 µM
3  COc1ccc(CNc2nc3ccccc3n2-c2ncnc(Nc3cc(OC)c(OC)c(OC)c3)n2)cc1  Kdr (Homo sapiens, UniProt P35968)       < 0.779 µM
4  COc1ccc(Nc2ncnc(NCCCN3CCCCC3C)n2)cc1OC (centres unmarked)  Kdr (Homo sapiens, UniProt P35968)        > 11.6 µM
5  COc1cc(Nc2ncnc(NC(=O)NCc3ccccc3)n2)cc(OC)c1OC  Kdr (Homo sapiens, UniProt P35968)          > 11 µM
6  CN(c1cccc(Cl)c1)c1ncnc(Nc2cccc(Cc3nnn[nH]3)c2)n1  Kdr (Homo sapiens, UniProt P35968)  1.02 to 6.09 µM

Now for a further compound.
// field: IC50; key: `CN1CCN(Cc2cccc(Nc3ncnc(Nc4ccc5c(cnn5Cc5ccccc5)c4)n3)c2)CC1` ; value = > 8.9 µM

---

system_name: IGFR-1 (Homo sapiens, UniProt P08069)
Construct: Kinases are expressed as either kinase domains or full length constructs; made in house
Sequence (P08069 31-1367): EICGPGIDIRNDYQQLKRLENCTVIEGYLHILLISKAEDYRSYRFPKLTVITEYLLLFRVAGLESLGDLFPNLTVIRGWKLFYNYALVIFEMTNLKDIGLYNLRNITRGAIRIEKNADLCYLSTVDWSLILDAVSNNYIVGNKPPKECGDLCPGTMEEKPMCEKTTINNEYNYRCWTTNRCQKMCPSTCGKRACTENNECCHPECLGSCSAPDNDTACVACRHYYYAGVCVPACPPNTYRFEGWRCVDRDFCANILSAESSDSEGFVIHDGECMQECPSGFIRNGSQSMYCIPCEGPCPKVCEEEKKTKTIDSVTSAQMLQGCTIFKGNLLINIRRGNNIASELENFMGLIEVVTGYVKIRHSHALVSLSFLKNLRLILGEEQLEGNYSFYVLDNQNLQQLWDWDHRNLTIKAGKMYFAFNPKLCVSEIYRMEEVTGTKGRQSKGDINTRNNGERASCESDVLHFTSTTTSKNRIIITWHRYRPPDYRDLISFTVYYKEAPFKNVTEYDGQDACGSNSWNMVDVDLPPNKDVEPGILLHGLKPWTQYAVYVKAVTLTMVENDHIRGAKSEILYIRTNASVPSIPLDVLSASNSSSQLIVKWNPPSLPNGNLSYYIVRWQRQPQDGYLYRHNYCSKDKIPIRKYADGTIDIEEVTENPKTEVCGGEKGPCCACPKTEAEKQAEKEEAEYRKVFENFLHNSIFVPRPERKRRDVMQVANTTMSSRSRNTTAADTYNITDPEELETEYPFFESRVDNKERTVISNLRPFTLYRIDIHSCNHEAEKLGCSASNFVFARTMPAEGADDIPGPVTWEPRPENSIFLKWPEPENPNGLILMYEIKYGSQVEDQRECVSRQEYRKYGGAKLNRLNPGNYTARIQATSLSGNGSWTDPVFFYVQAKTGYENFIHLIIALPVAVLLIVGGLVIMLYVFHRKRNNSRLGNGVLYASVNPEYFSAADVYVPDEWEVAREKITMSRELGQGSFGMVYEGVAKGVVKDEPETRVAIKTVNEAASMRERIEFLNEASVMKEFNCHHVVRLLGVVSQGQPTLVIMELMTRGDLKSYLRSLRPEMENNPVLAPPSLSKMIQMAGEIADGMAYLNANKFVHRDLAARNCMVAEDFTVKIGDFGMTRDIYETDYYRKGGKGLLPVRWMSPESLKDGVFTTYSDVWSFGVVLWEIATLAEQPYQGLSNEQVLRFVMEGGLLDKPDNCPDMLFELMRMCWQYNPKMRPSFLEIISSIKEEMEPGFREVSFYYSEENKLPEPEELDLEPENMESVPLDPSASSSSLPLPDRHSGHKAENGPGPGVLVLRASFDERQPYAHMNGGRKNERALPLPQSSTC
experiment: Kinase inhibition assay (33P transfer), IGFR-1
Format: biochemical
conditions_used: Table 2, class symbols A-E
pIC50: −log10 of the molar value.
Quick list: pIC50 per entry.

                                   molecule        result
0  c1ccc(Cn2ncc3cc(Nc4ncnc(Nc5ccc6ncsc6c5)n4)ccc32)cc1  5.27 to 6.05
1  COc1ccc(Nc2ncnc(Nc3cc(-c4ccc(C)cc4)n[nH]3)n2)c(C)c1        > 5.99
2  COc1cc(Nc2ncnc(-c3cccnc3Nc3ccc4c(c3)CCC4)n2)cc(OC)c1OC        < 5.02

Field pIC50 (entry `COc1cc(Nc2ncnc(NC(=O)Cc3ccccc3)n2)cc(OC)c1OC` ) reads < 4.94

# molecule `COc1ccc(Nc2ncnc(Nc3ccc4ncsc4c3)n2)cc1OC` ; its pIC50 = > 5.98

For reference, reported pIC50 for Cc1ccc(Cl)cc1Nc1ncnc(N2c3ccc(F)cc3CCC2C)n1 (stereo not shown) stands at < 4.93

// sample `COc1ccc(Nc2ncnc(N(C)c3ccc(C(=O)O)cc3)n2)cc1OC` , its pIC50 was 5.04 to 5.20

---

system_name: c-Met (Homo sapiens)
Construct: Kinases are expressed as either kinase domains or full length constructs; made in house
Sequence (P08581 25-1390): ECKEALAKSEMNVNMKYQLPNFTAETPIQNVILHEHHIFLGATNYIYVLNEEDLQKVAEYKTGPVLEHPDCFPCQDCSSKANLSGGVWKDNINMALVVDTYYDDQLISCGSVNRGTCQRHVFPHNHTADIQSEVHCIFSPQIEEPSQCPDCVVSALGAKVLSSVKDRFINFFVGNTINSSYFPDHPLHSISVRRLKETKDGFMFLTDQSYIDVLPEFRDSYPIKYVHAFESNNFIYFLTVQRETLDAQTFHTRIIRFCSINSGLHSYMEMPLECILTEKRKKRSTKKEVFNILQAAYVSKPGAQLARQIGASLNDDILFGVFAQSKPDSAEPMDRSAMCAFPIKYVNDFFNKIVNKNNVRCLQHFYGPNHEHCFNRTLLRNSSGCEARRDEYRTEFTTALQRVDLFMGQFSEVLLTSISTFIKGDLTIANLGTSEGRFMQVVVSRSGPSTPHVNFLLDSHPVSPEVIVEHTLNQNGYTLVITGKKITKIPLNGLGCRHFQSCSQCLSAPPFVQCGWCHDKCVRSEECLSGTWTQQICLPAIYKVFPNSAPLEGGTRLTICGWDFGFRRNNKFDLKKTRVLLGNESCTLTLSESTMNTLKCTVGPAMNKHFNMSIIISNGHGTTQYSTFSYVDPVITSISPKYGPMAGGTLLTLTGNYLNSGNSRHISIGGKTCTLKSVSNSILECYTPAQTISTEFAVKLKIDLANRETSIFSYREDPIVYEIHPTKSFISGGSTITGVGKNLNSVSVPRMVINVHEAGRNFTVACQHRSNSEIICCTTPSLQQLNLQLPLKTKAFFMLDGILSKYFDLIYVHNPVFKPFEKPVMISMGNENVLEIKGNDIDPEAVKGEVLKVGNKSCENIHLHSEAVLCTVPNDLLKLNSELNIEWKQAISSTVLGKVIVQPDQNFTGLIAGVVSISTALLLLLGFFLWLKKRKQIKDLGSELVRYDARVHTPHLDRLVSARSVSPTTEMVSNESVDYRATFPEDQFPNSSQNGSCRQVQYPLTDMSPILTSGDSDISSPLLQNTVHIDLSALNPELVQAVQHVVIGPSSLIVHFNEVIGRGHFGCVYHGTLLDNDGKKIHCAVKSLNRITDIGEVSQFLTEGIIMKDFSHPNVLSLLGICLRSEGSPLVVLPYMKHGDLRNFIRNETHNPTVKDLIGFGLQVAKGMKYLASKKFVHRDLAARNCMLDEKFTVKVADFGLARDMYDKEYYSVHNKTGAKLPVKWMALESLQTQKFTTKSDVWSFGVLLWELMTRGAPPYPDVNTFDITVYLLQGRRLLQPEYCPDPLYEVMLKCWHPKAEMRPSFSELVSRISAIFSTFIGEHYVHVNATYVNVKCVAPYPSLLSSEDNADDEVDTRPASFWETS
experiment: Kinase inhibition assay (33P transfer), c-Met
Format: biochemical
conditions_used: Table 2, class symbols A-E; read-out: Met-1
test_readout: IC50

// worked examples, IC50 included
>>> df
                                   compound  test_readout            result
0  COc1ccc(Nc2ncnc(Nc3ccc(N4CCCCC4)cc3)n2)cc1OC          IC50   0.984 to 5.9 µM
1  COc1ccc(Nc2ncnc(N(C)c3ccc(OC(F)(F)F)cc3)n2)cc1OC          IC50   0.949 to 5.7 µM
2   COc1ccc(Nc2ncnc(N(C)c3ccccc3Cl)n2)cc1OC          IC50   1.08 to 6.45 µM
3  CCOc1ccc(Nc2ncnc(N(C)c3cccc(Cl)c3)n2)cc1OCC          IC50         1 to 6 µM
4  COc1ccc(CCNc2ncnc(Nc3cc(-c4ccco4)[nH]n3)n2)cc1OC          IC50  0.982 to 5.89 µM
5  COc1ccc(Nc2ncnc(N(C)c3ccc(S(=O)(=O)O)cc3)n2)cc1OC          IC50   8.38 to 10.8 µM

Sure, the documented IC50 for `CN(c1ccc2c(cnn2Cc2ccccc2)c1)c1ncnc(Nc2cccc(Br)c2)n1` is 7.2 to 9.25 µM

IC50 for `Fc1ccc(CNc2ncccc2-c2ncnc(Nc3cccc(Cn4ccnc4)c3)n2)cc1` is 5.3 to 7.73 µM

The recorded IC50 for `COC(=O)c1ccc(-c2cc(Nc3ncnc(NCc4cccs4)n3)[nH]n2)cc1` is 0.982 to 5.89 µM

Looking up `Cc1nccc(-c2cccc(Nc3ncnc(Nc4ccc5c(cnn5Cc5ccccc5)c4)n3)c2)n1` , I found its IC50 recorded as 0.824 to 4.94 µM

Looking up `COc1ccc(Nc2ncnc(N(C)C3CCN(C)CC3)n2)cc1OC` , I found its IC50 recorded as > 12.6 µM

Reported IC50 of `COc1cc(Nc2ncnc(-c3cccnc3Nc3ccc(Cl)cc3C)n2)cc(OC)c1OC` : > 9.4 µM

IC50 for `COc1cc(Nc2ncnc(-c3cccnc3Nc3ccc(Oc4ccccc4)cc3)n2)cc(OC)c1OC` is > 8.61 µM

Entry `CCN(CC)CCN(C)c1ncnc(Nc2ccc(OC)c(OC)c2)n1` ; IC50 = > 12.5 µM

// data source = patent US7074789B2
